Tested on: P4E6
protocol: Anti-proliferative activity, MTS viability assay
Type: cell-based
run.parameters: 72 hours exposure, read-out: IC50 Prostate P4E6
pIC50: −log10 of the molar value.
experimental.readout: pIC50

1. Cc1c(C)n(CCCN2CCN(C)CC2)c2ccc(Oc3cccc(C(=O)N4CCN(CCc5ccc(F)cc5)CC4)c3)cc12 | 6.06

---

Test system: CaCo2
protocol: Anti-proliferative activity, cell-titre luminescent viability assay
Assay type: cell-based
run.parameters: Homo sapiens, Caco-2, 72 h, 0.03, 0.3, 3 and 30 μM, linear regression of semi-log plots, read-out: IC50 Colorectal CaCo2
pIC50: −log10 of the molar value.
Collected pIC50 values appear next to each entry.
experimental.readout: pIC50

1. COc1cccc(CCN2CCN(C(=O)c3ccc(Cc4ccc5c(c4)c(C)c(C)n5CCCN4CCN(C)CC4)cc3)CC2)c1 [Compound 3523] | 5.51
2. Cc1c(C)n(CCCN2CCN(C)CC2)c2ccc(Cc3ccc(C(=O)N4CCN(CCc5cccc(F)c5)CC4)cc3)cc12 [Compound 3522] | 5.52
3. Cc1c(C)n(CCCN2CCN(C)CC2)c2ccc(Cc3cccc(C(=O)N4CCN(CCc5ccccc5)CC4)c3)cc12 [Compound 3506] | 5.57
4. Cc1c(C)n(CCCN2CCN(C)CC2)c2ccc(Nc3cccc(C(=O)N4CCN(CCc5ccc(F)cc5)CC4)c3)cc12 [Compound 3513] | 5.51
5. Cc1c(C)n(CCCN2CCN(C)CC2)c2ccc(Oc3cccc(C(=O)N4CCN(CCc5ccccc5)CC4)c3)cc12 [Compound 3512] | 5.49
6. COc1ccc(CCN2CCN(C(=O)c3ccc(Cc4ccc5c(c4)c(C)c(C)n5CCCN4CCN(C)CC4)cc3)CC2)cc1 [Compound 3520] | 5.46
7. Cc1c(C)n(CCCN2CCN(C)CC2)c2ccc(Cc3ccc(C(=O)N4CCN(CCc5ccccc5)CC4)cc3)cc12 [Compound 3524] | 5.77
8. Cc1c(C)n(CCCN2CCN(C)CC2)c2ccc(Nc3cccc(C(=O)N4CCN(CCc5cccc(F)c5)CC4)c3)cc12 [Compound 3516] | 5.68
9. Cc1c(C)n(CCCN2CCN(C)CC2)c2ccc(Cc3cccc(C(=O)N4CCN(CCc5ccc6c(c5)OCO6)CC4)c3)cc12 [Compound 3503] | 5.47
10. Cc1c(C)n(CCCN2CCN(C)CC2)c2ccc(Nc3ccc(C(=O)N4CCN(CCc5ccc(F)cc5)CC4)cc3)cc12 [Compound 3531] | 5.38
11. Cc1c(C)n(CCCN2CCN(C)CC2)c2ccc(Cc3cccc(C(=O)N4CCN(CCc5ccc(F)cc5)CC4)c3)cc12 [Compound 3501] | 5.51
12. Cc1c(C)n(CCCN2CCN(C)CC2)c2ccc(Oc3cccc(C(=O)N4CCN(CCc5ccc(F)cc5)CC4)c3)cc12 [Compound 3507] | 5.60
13. Cc1c(C)n(CCCN2CCN(C)CC2)c2ccc(Nc3ccc(C(=O)N4CCN(CCc5cccc(F)c5)CC4)cc3)cc12 [Compound 3534] | 5.49
14. Cc1c(C)n(CCCN2CCN(C)CC2)c2ccc(Nc3cccc(C(=O)N4CCN(CCc5ccccc5)CC4)c3)cc12 [Compound 3518] | 5.60

---

Collected inhibition at 10 µM values appear next to each entry.
System: TNF-α
protocol: Inhibition of cytokine release from PBMCs (HTRF)
Type: cell-based
run.parameters: PBMC; 10 μM; human PBMCs, LPS stimulated
experimental.readout: inhibition at 10 µM

1) Cc1c(C)n(CCCN2CCN(C)CC2)c2ccc(Nc3ccc(C(=O)N4CCN(CCc5cccc(F)c5)CC4)cc3)cc12 | -12%
2) Cc1c(C)n(CCCN2CCN(C)CC2)c2ccc(Oc3cccc(C(=O)N4CCN(CCc5ccc(F)cc5)CC4)c3)cc12 | 90%
3) COc1ccc2cc(CCN3CCN(C(=O)c4cccc(Cc5ccc6c(c5)c(C)c(C)n6CCCN5CCN(C)CC5)c4)CC3)ccc2c1 | -7%
4) COc1ccc(CCN2CCN(C(=O)c3ccc(Cc4ccc5c(c4)c(C)c(C)n5CCCN4CCN(C)CC4)cc3)CC2)cc1 | -14%
